Test system: A549
Experiment: NCI tumour cell line growth inhibition, 48 h
Calls of active or inactive are those of the source. No stated cut-off is given here; in the data, active = GI50 up to about 1.1 µM and inactive = higher.
Assign a class; possible classes are true (1) = active, false (0) = inactive

QUERY: Called result for "CC(=O)O[C@H]1C(=O)[C@@]2(C)[C@H]([C@H](OC(=O)C3CCCCC3)[C@]3(O)C[C@H](OC(=O)[C@H](O)[C@@H](NC(=O)C4CCCCC4)C4CCCCC4)C(C)=C1C3(C)C)[C@]1(OC(C)=O)CO[C@@H]1C[C@@H]2O"
RESULT: true (1)

QUERY: Called result for "c1ccc(C(CCN2CC3CCC(CC3)C2)c2ccccc2)cc1"
RESULT: false (0)

QUERY: Called result for "CN1CCN(c2ccc(-n3cc(C(=O)O)c(=O)c4cc(F)c(N5CCN(C)CC5)cc43)nc2)CC1"
RESULT: false (0)

QUERY: Called result for "CC1=CC(=O)N(n2c(Cc3ccccc3)n[nH]c2=O)C1=O"
RESULT: false (0)

QUERY: Called result for "Cc1cccc(C)c1NC(=O)CCC/C(CC(=O)c1ccc(F)cc1)=N\NC(=O)C(=O)NN"
RESULT: false (0)

QUERY: Called result for "CCOC(=O)CC(=O)ON(C)C(C)=O"
RESULT: false (0)

QUERY: Called result for C/C(=N\N)C(CN(C)C)C(c1ccccc1)c1c(O)c2ccccc2oc1=O (centres undefined)
RESULT: false (0)

QUERY: Called result for "CC(=O)N/C(=C\c1cccc([N+](=O)[O-])c1)c1nc2ccc3c(c2[nH]1)C(=O)c1ccccc1C3=O"
RESULT: false (0)

QUERY: Called result for "COc1ccc(-c2cc(-c3ccc(Nc4ccnc5cc(Cl)ccc45)cc3)[nH]c(=O)c2C#N)c2ccccc12"
RESULT: false (0)

* * *

Test system: IGROV-1
Experiment: NCI tumour cell line growth inhibition, 48 h
Active and inactive are the calls of the source. No stated cut-off is given here; in the data, active = GI50 up to about 1.1 µM and inactive = higher.
Assign a class; possible classes are Yes = active, No = inactive

QUERY: Called result for CSC1(CC(=O)N(C)C)C(=O)Nc2ccccc21 (stereo unspecified)
RESULT: No

QUERY: Called result for "O=C1C(c2c(O)[nH]c3ccc(I)cc23)=Nc2ccccc21"
RESULT: Yes

QUERY: Called result for "N=C(N)NS(=O)(=O)c1ccc(NCCc2c3ccccc3nc3ccccc23)cc1"
RESULT: No

QUERY: Called result for "CN(C)c1ccc(/C=c2\sc3nnc(Cc4ccccc4)n3c2=O)cc1"
RESULT: No

QUERY: Called result for CC1(C)OC2OC(/C=C/[N+](=O)[O-])C3OC(C)(C)OC3C2O1 (stereo unspecified)
RESULT: No

QUERY: Called result for "CCCCC(=O)Nc1ccc2cc(C(=O)OC)c(Cl)nc2n1"
RESULT: No

QUERY: Called result for CCC12CCCN(Cc3ccccc3)C1c1c(n(C)c3ccccc13)C(CO)C2 (stereo unspecified)
RESULT: No

QUERY: Called result for O=C1OCC2C1C1c3ccccc3C(O)c3ccccc3C21 (stereo unspecified)
RESULT: No

QUERY: Called result for CC(=O)Nc1ccc(C(=O)NN2C(=O)CSC2c2ccc(O)cc2)cc1 (stereo unspecified)
RESULT: No

QUERY: Called result for "COc1ccc2c(c1)-c1c(c3cc(OC)ccc3n1CCN(C)C)CC2"
RESULT: No

QUERY: Called result for "Cn1cnc([N+](=O)[O-])c1Sc1nccn1-c1cccc2ccccc12"
RESULT: No

QUERY: Called result for C/C(=N\N)C(CN(C)C)C(c1ccccc1)c1c(O)c2ccccc2oc1=O (stereo unspecified)
RESULT: No

QUERY: Called result for "CC(=O)NC1=C(NCc2ccc(Cl)cc2)C(=O)c2ccccc2C1=O"
RESULT: No

QUERY: Called result for CC(C)CCC[C@@H](C)C1CCC2[C@@H]3CCC4CC(CCC=C(c5cc(Cl)c(OC(=O)c6ccccc6)c(C(=O)O)c5)c5cc(Cl)c(OC(=O)c6ccccc6)c(C(=O)O)c5)CC[C@]4(C)C3CC[C@@]21C (stereo partly specified)
RESULT: No

QUERY: Called result for "CCN(CC)C(=S)SCC(=O)Nc1nc2c(s1)CCCC2"
RESULT: No

QUERY: Called result for OC1(C(Sc2cc(C(F)(F)F)cc(C(F)(F)F)c2)Sc2cc(C(F)(F)F)cc(C(F)(F)F)c2)C=CCCC1 (stereo unspecified)
RESULT: No

QUERY: Called result for N#Cc1ccccc1NC(=O)/C(=N\N)C(C(=O)c1ccncc1)C1OC(=O)c2ccccc21 (stereo unspecified)
RESULT: No

QUERY: Called result for "CN(C)c1n/c(=N/Cc2ccccc2)ss1"
RESULT: No

QUERY: Called result for "CN1CCN(c2ccc(-n3cc(C(=O)O)c(=O)c4cc(F)c(N5CCN(C)CC5)cc43)nc2)CC1"
RESULT: No

QUERY: Called result for COc1cccc(NC(=O)CC(=O)N2N=C(n3ccc4ccccc43)CC2c2ccccc2)c1 (stereo unspecified)
RESULT: No

QUERY: Called result for CC1Cc2c(N)nc(NN)nc2NC1=O (stereo unspecified)
RESULT: No
